The reported measurements were obtained from patent US20260378560A1.

Below: a set of entries, each annotated with reported drug response score (DRS).
Test system: CCRF-CFM
Assay: ATP-based luminescence cell viability (CellTiter Glo), drug response score, CCRF-CFM
Set-up: scale not given here
Settings: screened individually (Compress: None)
Field format: numeric only.

{"columns": ["molecule", "systemName", "drug response score (DRS)"],
 "data": [
  ["N#Cc1ccnc(N2C(=O)CC[C@H]2C(=O)N(c2cncc(F)c2)[C@H](C(=O)NC2CC(F)(F)C2)c2ccccc2Cl)c1 [Ivosidenib]", "CCRF-CFM", 1.00],
  ["CC1(C)CCC(CN2CCN(c3ccc(C(=O)NS(=O)(=O)c4ccc(NCC5CCOCC5)c([N+](=O)[O-])c4)c(Oc4cnc5[nH]ccc5c4)c3)CC2)=C(c2ccc(Cl)cc2)C1 [Venetoclax]", "CCRF-CFM", 1.10],
  ["Cc1[nH]c2ccccc2c1CCNCc1ccc(/C=C/C(=O)NO)cc1 [Panobinostat]", "CCRF-CFM", 17.50]
]}

Here is the next item to consider.
Inquiry: Reported drug response score (DRS), molecule COc1c(OCCCN2CCOCC2)ccc2c1N=C(NC(=O)c1cnc(N)nc1)N1CCN=C21 [Copanlisib] : ____
Reply text: 15.14
